assay: Components of the Cytosolic LPS Sensing Pathway: Gene Identification via Genome-wide siRNA Screen; details: RAW264.7 macrophages, IL-1a HTRF, actives lie on both sides, screened at 100 nM (by protocol), cells primed 5 h with Pam3CSK4 first
The campaign covered roughly 53,000 sequences. About 3,700 (7%) were called active. The full list was thinned out, with actives kept by preference.
RESULT_TYPE: z-score
Number, no unit, nothing else.

SEQUENCE_CODE	READOUT_NUMBER
AAUCUUGAGAGAUUUCUCCTT against Scd2	-0.047
GGUAUUCUAUAAGCUCCUUTT against Dennd1a	-2.07
GGAUUGAAGCAGGCAGCUUTT against Purb	-0.787
GGGUAACAUGAAGAUCAAUTT against Rnf19a	0.488
GGCCUUGAGAGGCUAAUACTT against Spata20	-1.27

Inquiry: GET /values?readout=z-score&item= GGCAUUGAAUUAAAGAUACTT against Myct1
Reply text: -1.06

Inquiry: Data request, read-out z-score, for GGUUGGAUACUCGUCUUCATT against Olfr421-ps1
Reply text: 1.16

Inquiry: # query: z-score of entry GGUAGCAAAUCCAACAAGATT against Slamf1
Reply text: 0.226

Inquiry: Query (sequence): GGUUUACAAGAGUUACAGUTT against Brpf1 ; field requested: z-score
Reply text: 0.493

Inquiry: Would you mind telling me what z-score value was observed for GGAGAUUGAACAGUCAAACTT against Pex5 ?
Reply text: 3.01

Inquiry: Report z-score for GGGAAGGGAUCCUAUAUUUTT against Lsm12 please.
Reply text: 0.158

Inquiry: Look up z-score: GGUUGUUUCACCAAUAGUUTT against Idi1
Reply text: -0.454

###

experiment: Components of the Cytosolic LPS Sensing Pathway: Gene Identification via Genome-wide siRNA Screen; conditions: RAW264.7 macrophages, IL-1a HTRF, actives lie on both sides, screened at 100 nM (by protocol), cells primed 5 h with Pam3CSK4 first
Hit rate of the full screen: of about 53,000 sequences, about 3,700 (7%) were called active. Only a selection was taken, and actives are over-represented in it overall.
RESULT_TYPE: z-score
Answer with a number only.

See these solved cases before continuing.
SEQUENCE_CODE	z-score
GGACUGCCUUAAUUAAAGUTT against Coa6	1.7
GGCCAUGGUUUCAAAAACATT against Rspo2	-1.33
GCAAAAGCUAAUAAACUUGTT against Acox2	0.921
GCCUUAGGCCUUUGUUUCCTT against Tpgs2	0.124

Inquiry: Form field: reported z-score of CCGACGAUUCCUGAAGCUATT against Tada3
Reply text: -0.275

Inquiry: Query (sequence): GCCCAUGUAUCCAAAAGAATT against Cnmd ; field requested: z-score
Reply text: -1.59

Inquiry: Looking for the measured z-score of GCACAAGCGAUGGGUUAACTT against Fkbp1a , can you help?
Reply text: -0.708

###

assay: Components of the Cytosolic LPS Sensing Pathway: Gene Identification via Genome-wide siRNA Screen; conditions: RAW264.7 macrophages, IL-1a HTRF, actives lie on both sides, screened at 100 nM (by protocol), cells primed 5 h with Pam3CSK4 first
Hit rate of the full screen: of about 53,000 sequences, about 3,700 (7%) were called active.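 How the source made its calls: active means gene knockdowns whose robust z-score for IL-1 alpha signal is at least 2 or at most -2, so actives lie on both sides; inactive means the rest.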 Shown is part of a subset that was picked to be rich in actives.
Select the matching outcome among active, inactive

Solved entries:
SEQUENCE_CODE	DISCRETE_LABEL
GCACUAGAAGUGUCUUUUCTT against Cdhr1	active
GGAUCUUACUAUCACCAGCTT against Foxf1	inactive
GGCUCCUGUAAUGCUAACUTT against Zfp715	inactive
GGACAAUAUCAGAAAGAGUTT against Purg	inactive

Inquiry: Which outcome was assigned to CCGCCUGGAUAAUUAUGAUTT against Cltc in this test?
Reply text: inactive

Inquiry: How was GGCCAGUGUAUUUGACCUGTT against Slc22a18 classified in this test?
Reply text: inactive

###

Reported z-score by item:
test: Components of the Cytosolic LPS Sensing Pathway: Gene Identification via Genome-wide siRNA Screen; details: RAW264.7 macrophages, IL-1a HTRF, actives lie on both sides, screened at 100 nM (by protocol), cells primed 5 h with Pam3CSK4 first;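 note: robust z of the log signal after scaling to non-targeting control siRNA wells of the plate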
Screen size: about 53,000 sequences; about 3,700 (7%) were called active. This is one part of a sample in which actives are shown more often than they occur.
# respond with the number and nothing more

// below: answered sequences
SEQUENCE_CODE	z-score
GCACUUACUCAUUAAUCACTT against Rnf20	-2.56
GGAUACCUACCUGGACAGUTT against Dlgap4	-1.23
CACCGUAAUAAUCACACUATT against Zfp667	-0.854
GCCUUGGCUGAAACUCUCATT against Cybb	0.612

Inquiry: What measured z-score goes with GGGAAUCUUUAUCAGUGAGTT against Insc ?
Reply text: 0.429

Inquiry: Looking for the measured z-score of GGCUGGUGGAUAAUGAUUGTT against Tmem50b , can you help?
Reply text: 2.18

Inquiry: So what's the measured z-score for this one? UUUACUAGACCUGAUGGCUTT against Olfr815
Reply text: 0.732

Inquiry: Requested read-out: z-score. Entry: CCAACACUGAGCUCAGAAGTT against Igfbp2
Reply text: -1.34

Inquiry: What does the data say about its z-score? Entry: GGCAAUUUGUGGAUUAUUGTT against Olfr1105
Reply text: -0.458

Inquiry: Name the reported z-score value associated with the sequence GGAUUAAUCAAACUGAGAGTT against Lrrtm2
Reply text: -1.24

Inquiry: Can you share its z-score? I mean this sequence: GGCAAUGCUGUCCUACUAUTT against Map2k5
Reply text: -1.19

Inquiry: What value of z-score has been recorded for this entry: GGAGGAUUGUCCACAUGGATT against Ccl27a
Reply text: 4.32

Inquiry: Give the measured z-score of GCUAUCGUGAUAAUCUGGATT against Gxylt2 .
Reply text: -0.113

Inquiry: // query z-score value for entry GCAUUUCGACGCGGCUUUUTT against Snapc1
Reply text: 0.617

Inquiry: Fill blank: measured z-score of the sequence GGAACACAACUUCCUGUUCTT against Map11 is ____.
Reply text: 1.05

Inquiry: May I ask what z-score has been recorded for GCUUCAGCUCUGAUUAACGTT against Alox8 ?
Reply text: -0.233

###

test: Components of the Cytosolic LPS Sensing Pathway: Gene Identification via Genome-wide siRNA Screen; settings: RAW264.7 macrophages, IL-1a HTRF, actives lie on both sides, screened at 100 nM (by protocol), cells primed 5 h with Pam3CSK4 first;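 note: robust z of the log signal after scaling to non-targeting control siRNA wells of the plate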
Among all 53,000 sequences or so, about 3,700 (7%) were called active. The entries come from a sample that favours actives as a whole.
RESULT_TYPE: z-score
Hey, just send me the number, nothing else.

Worked set:
SEQUENCE_CODE	READOUT_NUMBER
CCAACCAGACUUAUUUAAUTT against Zfp37	1.61
GGACCAAGUGGAAGAAGCATT against Nkx1-2	-2.02
GGCCUAAGCAAGUUGCGCATT against Fbxl8	1.5

Inquiry: What value of z-score has been recorded for this entry: GGUUAAAGGAGCAGUCUAUTT against Dbn1
Reply text: 0.636

Inquiry: Dear colleague, I am looking for the recorded z-score of the following sequence: GGGAUAUCCCAGAACAAGATT against Vps37a
Reply text: 0.336

Inquiry: Data request, read-out z-score, for GGAACUCCUGACUCUCAGATT against Htra2
Reply text: -1.19

Inquiry: Give its z-score value. Item: GGCUUCAUAAGAUCAAAGATT against Lca5l
Reply text: -2.88

###

test: Components of the Cytosolic LPS Sensing Pathway: Gene Identification via Genome-wide siRNA Screen; settings: RAW264.7 macrophages, IL-1a HTRF, actives lie on both sides, screened at 100 nM (by protocol), cells primed 5 h with Pam3CSK4 first;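 note: robust z of the log signal after scaling to non-targeting control siRNA wells of the plate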
The whole screen tested about 53,000 sequences, of which about 3,700 (7%) were called active. The sample as a whole holds a higher share of actives than the screen did.
RESULT_TYPE: z-score
API note: the answer field is a bare number with no unit suffix.

Examples with answers:
SEQUENCE_CODE	z-score
GCCAUGCUAAUCAAGACGGTT against Gtf2ird2	-0.99
GCCUUGUGACAGCAUUAGUTT against Slc6a13	-0.0361
GCCAAUGAAAGAGACGUAGTT against Fam81a	-0.421

Inquiry: Requested field: z-score. Item: GGACAAUUGGAAGAUUUGGTT against Ccdc88a
Reply text: -1.23

Inquiry: Name the reported z-score value associated with the sequence CCGCACAGACCAUAGUAGATT against Pudp
Reply text: 0.261

###

sequences and their reported z-score
test: Components of the Cytosolic LPS Sensing Pathway: Gene Identification via Genome-wide siRNA Screen; conditions: RAW264.7 macrophages, IL-1a HTRF, actives lie on both sides, screened at 100 nM (by protocol), cells primed 5 h with Pam3CSK4 first;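 note: robust z of the log signal after scaling to non-targeting control siRNA wells of the plate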
Out of some 53,000 sequences screened, about 3,700 (7%) were called active. This is one part of a sample in which actives are shown more often than they occur.
Could you keep your reply to the number by itself?

Answered cases to consult:
SEQUENCE_CODE	z-score
GUCAGUAUGGAGCGAUGGGTT against Zmiz2	0.695
GGUGGAAUGAGGAAACAACTT against Cck	-0.945
GGAAAUGAGUGAAGAUGAATT against Cdk11b	-0.186

Inquiry: Data request, read-out z-score, for CGGGACCUUGUUGAUAACUTT against Tmem130
Reply text: 0.811
